target: dopamine (DA) reuptake, rat corpora striata (Rattus norvegicus); construct: using rat corpora striata as a tissue source; from tissue; host or cells: rat corpora striata synaptosomes; assay: Inhibition of dopamine (DA) reuptake, [3H]DA incorporation into synaptosomes; format: biochemical; conditions: [3H]DA 0.2 μCi/mL, 15 min/37° C.
Sequence (P23977 whole entry): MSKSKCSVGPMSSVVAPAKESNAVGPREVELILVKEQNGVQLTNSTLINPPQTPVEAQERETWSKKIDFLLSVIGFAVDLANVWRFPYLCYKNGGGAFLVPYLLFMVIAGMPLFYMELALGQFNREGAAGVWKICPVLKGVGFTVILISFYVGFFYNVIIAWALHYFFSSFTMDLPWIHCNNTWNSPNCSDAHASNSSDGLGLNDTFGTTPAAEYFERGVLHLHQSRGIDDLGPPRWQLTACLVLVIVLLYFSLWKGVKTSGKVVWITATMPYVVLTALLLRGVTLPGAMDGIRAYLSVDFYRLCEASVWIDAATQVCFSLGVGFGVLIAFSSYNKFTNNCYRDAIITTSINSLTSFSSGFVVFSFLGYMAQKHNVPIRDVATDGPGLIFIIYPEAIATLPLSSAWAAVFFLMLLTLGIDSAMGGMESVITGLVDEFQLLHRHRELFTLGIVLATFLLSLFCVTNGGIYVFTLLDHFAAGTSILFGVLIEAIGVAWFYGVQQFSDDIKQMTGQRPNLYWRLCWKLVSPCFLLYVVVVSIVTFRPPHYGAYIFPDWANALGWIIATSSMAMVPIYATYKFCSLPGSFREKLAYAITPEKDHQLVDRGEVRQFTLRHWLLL
quantity: IC50 (µM)

{"compound": "C[C@@H]1NC(C)(C)CO[C@@]1(O)c1cccc(Cl)c1 [HBP(S, S)]", "quantity": "IC50", "endpoint.value": 1.4}

###

target: norepinephrine (NE) reuptake, rat hypothalamus (Rattus norvegicus, UniProt Q63380); construct: using rat hypothalamus as a tissue source; assay: Inhibition of norepinephrine (NE) reuptake, [3H]NE incorporation into synaptosomes; conditions: [3H]NE 0.2 μCi/mL, 20 min/37° C.
Sequence (Q63380 1-617): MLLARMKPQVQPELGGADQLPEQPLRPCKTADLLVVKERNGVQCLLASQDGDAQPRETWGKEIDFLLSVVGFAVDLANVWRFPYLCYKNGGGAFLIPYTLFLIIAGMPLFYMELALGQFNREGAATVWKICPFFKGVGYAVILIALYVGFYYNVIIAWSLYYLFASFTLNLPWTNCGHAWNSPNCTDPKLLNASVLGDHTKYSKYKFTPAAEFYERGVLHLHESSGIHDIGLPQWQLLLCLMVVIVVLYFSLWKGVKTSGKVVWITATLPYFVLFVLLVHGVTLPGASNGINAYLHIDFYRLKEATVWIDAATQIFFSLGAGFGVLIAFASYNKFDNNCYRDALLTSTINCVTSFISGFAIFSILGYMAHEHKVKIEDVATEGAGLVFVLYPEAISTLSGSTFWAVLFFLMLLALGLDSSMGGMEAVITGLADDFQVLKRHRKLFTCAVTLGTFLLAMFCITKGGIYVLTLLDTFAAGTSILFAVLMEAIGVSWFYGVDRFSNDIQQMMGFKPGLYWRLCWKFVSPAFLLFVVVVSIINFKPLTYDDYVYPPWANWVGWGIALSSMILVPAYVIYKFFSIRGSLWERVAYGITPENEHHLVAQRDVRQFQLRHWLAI
# IC50 per entry

{"molecule": "C[C@@H]1NC(C)(C)CO[C@@]1(O)c1cccc(Cl)c1 [HBP(S, S)]", "test.system": "norepinephrine (NE) reuptake, rat hypothalamus (Rattus norvegicus, UniProt Q63380)", "measurement.units": "nM", "IC50": 229}
{"molecule": "CC1NC(C)(C)COC1(O)c1cccc(Cl)c1 (racemic) [HBP(RS, RS)]", "test.system": "norepinephrine (NE) reuptake, rat hypothalamus (Rattus norvegicus, UniProt Q63380)", "measurement.units": "nM", "IC50": 756}
